Reported EC50 values for a set of molecules
# Tested on: HBV (HepG2.117 cell line, inducibly HBV producing)
# EXPERIMENT: Anti-HBV activity, intracellular HBV DNA by real-time PCR in HepG2.117 cell line
# Assay type: cell-based, hepatitis B virus
# SETUP CONDITIONS: Hepatitis B virus, HepG2.117, 72 h, HepG2.117 cells, 3 days of treatment
Give the quantity in µM, number only.

Sample answers from the record:
CC(c1ccc(C2(O)CC2)cc1)N1C[C@@H](C)n2nc3c(c2C1=O)CN(C(=O)c1ccc(Cl)c(C#N)c1)[C@H](C)C3 (single isomer, unassigned) [Compound 14A] : 0.012
CC(c1ccc(=O)n(C)n1)N1C[C@@H](C)n2nc3c(c2C1=O)CN(C(=O)c1ccc(Cl)c(Cl)c1)[C@H](C)C3 (single isomer, unassigned) [Compound 55A] : 0.051
C[C@@H]1Cc2nn3c(c2CN1C(=O)c1ccc(Cl)c(C(F)(F)F)c1)C(=O)N([C@@H](C)c1ccc([S@@](C)(=N)=O)cc1)C[C@H]3C (relative stereo) [Compound 19D] : 0.011

Could you now consider this next molecule?
Problem: Fill in: EC50 of Cc1ncnn1-c1ccc([C@H](C)N2C[C@@H](C)n3nc4c(c3C2=O)CN(C(=O)c2ccc(Cl)c(Cl)c2)[C@H](C)C4)cn1 (relative stereo) [Compound 25B] is ___
Solution: 0.017
